test: soluble on expression in E. coli; label from the status in PepcDB or PDB records
test-readout: soluble on expression in E. coli

Record excerpt, results attached:
MGSDKIHHHHHHMKIKVALLDKDKEYLDRLTGVFNTKYADKLEVYSFTDEKNAIESVKEYRIDVLIAEEDFNIDKSEFKRNCGLAYFTGTPGIELIKDEIAICKYQRVDVIFKQILGVYSDMAANVATISGENDKSSVVIFTSPCGGVGTSTVAAACAIAHANMGKKVFYLNIEQCGTTDVFFQAEGNATMSDVIYSLKSRKANLLLKLESCIKQSQEGVSYFSSTKVALDILEISYADIDTLIGNIQGMDNYDEIIVDLPFSLEIEKLKLLSKAWRIIVVNDGSQLSNYKFMRAYESVVLLEQNDDINIIRNMNMIYNKFSNKNSEMLSNISIKTIGGAPRYEHATVRQIIEALTKMEFFEEILQ : not soluble
ELYSALANKCCHVGCTKRSLARFC : soluble
MSLKTGRSNIIAFIVPDQNPFFTEVLTEISHECQKHHLHVAVASSEENEDKQQDLIETFVSQNVSAIILVPVKSKFQMKREWLKIPIMTLDRELESTSLPSITVDNEEAAYIATKRVLESTCKEVGLLLANPNISTTIGRKNGYNKAISEFDLNVNPSLIHYSDQQLGTNAQIYSGYEATKTLLSKGIKGIVATNHLLLLGALQAIKESEKEIKKDVIIVGFDDSYWNEIYTPKLTVISQPVKEMGQVAAKMIYKLIKGKDVTSIKLSTKLIIRESCSFNEGHHHHHH : soluble
MGSDKIHHHHHHMNELQAILEGFESSQESGEITFLATVVKTQGSTYRRPGAKMFMTNTGRTIGTISAGCLENDVFEYTQQRMSDGKPILVTYDRTASEDILWGFGLGCNGVVQVLIERLERKSIPNAIAFTQECFHKKHLGIIATVFAFEGEVDVELGSRLLLYPNGKIVTDIKDQYLIQSLSADTQAAFVNQKPSVNNYQLPFGSAEVFIEVIQPPTPLVIFGAGYGAVPIAKFAQALGWDVTVVDCRANDTTRARFPLACDVILSNRYIIHKQIFIDVQTIAVVMTHNYLDDLEILKMMLPSPARYIGVLGTKYRTERLLEDLSIKGIVPTSEQLNRLYSPVGIDIGAETPEEIAIAIIAEIQAVLKNRNSNFLKNRNQPIHKSYQDNFNL : not soluble
MSGDFDTIRDASSPDEVQLVRLLEEKIKSLQIEIENLRKELNYYKAEMEKMLSPPLIEAVVLDVLPDGRVLVRSSSGPNLVVNIASHIDQKLIKPGISVALNQRGSTILEVLPQKE : soluble

Now turn to the next sequence.
soluble on expression in E. coli for VKNKKFTIIGGDLRSVKLAELIVAEGNKVNIYGFKNANFEIGIEESEDLDHAIGEADVIVGPTPCSTDNETINTPFHSQKIFIKDIFKKMNKSQLFIAGRITDKIAQLADVYNVYSVDLLEREEMAVLNAIPTAEGAIQIAMEEMPITLHGSNALILGFGRIGKILAKMLHGIGSNVYVEARKYSDLAWIESYGYKPVFITELESYIDRANVIFNTIPSIVLDENLLRKVNKDCLLIDLASKPGGIDFEKAKEMGLKTIWALSLPGKVAPVTAAKFIKDTISNIIDELGV ? not soluble
